Values compiled from paper PMC7503500.

Biological target: κ opioid receptor (KOR) (Homo sapiens, UniProt P41145)
Assay: Radioligand competition binding, KOR ([3H]-U69593), HEK293 cell homogenates
Details: read-out: KOR % (percent inhibition), at 10,000 nM; [3H]-U69593
Exercise: for every item that follows, state its recorded inhibition at 10 µM.
A bare number is not enough; add the unit after it.

Query (molecule): Cc1ncoc1-c1ncn2c1CN=C(c1ccccn1)c1cc(Br)ccc1-2 [KRM-II-81] ; field requested: inhibition at 10 µM
46%

Name the recorded inhibition at 10 µM for C#Cc1ccc2c(c1)C(c1ccccc1F)=N[C@@H](C)c1c(C(=O)OCC)ncn1-2 [SH-053-2′F-S-CH3] .
93%

Entry under review: Cc1ncoc1-c1ncn2c1CN=C(c1ccccc1F)c1cc(Br)ccc1-2 [KRM-III-59] . Reported inhibition at 10 µM?
73%

Would you mind telling me what inhibition at 10 µM value was observed for CCOC(=O)c1ncn2c1[C@@H](C)N=C(c1ccccn1)c1cc(Br)ccc1-2 [GL-II-06] ?
79%

----------
Molecular target: synaptic benzodiazepine-sensitive receptors (BZR), GABAAR
Experiment: 3H-flunitrazepam binding, rat brain homogenate
Settings: read-out: BZR (Ki)
PARAMETER_MEASURED: Ki (nM)
Number only, in nM; omit the unit.

Would you kindly share the measured Ki for C#Cc1ccc2c(c1)C(c1ccccn1)=NCc1c(C(=O)OC)ncn1-2 [MP-III-024] ?
277

Query (molecule): C#Cc1ccc2c(c1)C(c1ccccn1)=NCc1c(-c3nc(CC)no3)ncn1-2 [MP-III-080] ; field requested: Ki
303

Fill in: Ki of C#Cc1ccc2c(c1)C(c1ccccn1)=N[C@H](C)c1c(C(=O)OCC)ncn1-2 [GL-II-19] is ___
1140

Sample Cc1noc(-c2ncn3c2[C@@H](C)N=C(c2ccccn2)c2cc(C4CC4)ccc2-3)n1 [GL-III-64] — what was its Ki?
1490

Name the reported Ki value associated with the molecule C#Cc1ccc2c(c1)C(c1ccccn1)=N[C@H](C)c1c(C(=O)NC)ncn1-2 [GL-II-31]
1700

Which Ki value is on record for C[C@H]1N=C(c2ccccn2)c2cc(Br)ccc2-n2cnc(C(=O)O)c21 [GL-II-51] ?
181

// Ki lookup, key: C#Cc1ccc2c(c1)C(c1ccccc1F)=N[C@@H](C)c1c(C(=O)OCC(F)(F)F)ncn1-2 [GL-I-36]
418

Please give the measured Ki for this molecule: C#Cc1ccc2c(c1)C(c1ccccc1F)=N[C@@H](C)c1c(C(=O)O)ncn1-2 [SH-053-2′F-S-CH3-Acid]
29

I would be grateful if you could share the reported Ki for Cc1ncoc1-c1ncn2c1CN=C(c1ccccc1)c1cc(Br)ccc1-2 [KRM-III-66] .
49

Which measured Ki value corresponds to C#Cc1ccc2c(c1)C(c1ccccn1)=N[C@H](C)c1c(C(=O)OC)ncn1-2 [GL-II-32] ?
1430

Returns the measured Ki for the input molecule. Input: CCOC(=O)c1ncn2c1[C@H](C)N=C(c1ccccc1F)c1cc(Br)ccc1-2 [SH-I-048B]
96

Bench note: what Ki did C#Cc1ccc2c(c1)C(c1ccccc1F)=N[C@@H](C)c1c(C(=O)OC)ncn1-2 [MP-III-021] show?
219

What value of measured Ki is listed for C#Cc1ccc2c(c1)C(c1ccccc1F)=N[C@@H](C)c1c(C(=O)SCC)ncn1-2 [GL-I-77] ?
124

# input molecule: C#Cc1ccc2c(c1)C(c1ccccc1F)=N[C@@H](C)c1c(C(=O)OC(C)C)ncn1-2 [GL-I-31] ; wanted: its Ki
245

Sample C#Cc1ccc2c(c1)C(c1ccccn1)=NCc1c(-c3nc(C)no3)ncn1-2 [MP-III-085] — what was its Ki?
357
